# Assayed target: hERG (Homo sapiens, UniProt Q12809)
# Sequence (Q12809 whole entry): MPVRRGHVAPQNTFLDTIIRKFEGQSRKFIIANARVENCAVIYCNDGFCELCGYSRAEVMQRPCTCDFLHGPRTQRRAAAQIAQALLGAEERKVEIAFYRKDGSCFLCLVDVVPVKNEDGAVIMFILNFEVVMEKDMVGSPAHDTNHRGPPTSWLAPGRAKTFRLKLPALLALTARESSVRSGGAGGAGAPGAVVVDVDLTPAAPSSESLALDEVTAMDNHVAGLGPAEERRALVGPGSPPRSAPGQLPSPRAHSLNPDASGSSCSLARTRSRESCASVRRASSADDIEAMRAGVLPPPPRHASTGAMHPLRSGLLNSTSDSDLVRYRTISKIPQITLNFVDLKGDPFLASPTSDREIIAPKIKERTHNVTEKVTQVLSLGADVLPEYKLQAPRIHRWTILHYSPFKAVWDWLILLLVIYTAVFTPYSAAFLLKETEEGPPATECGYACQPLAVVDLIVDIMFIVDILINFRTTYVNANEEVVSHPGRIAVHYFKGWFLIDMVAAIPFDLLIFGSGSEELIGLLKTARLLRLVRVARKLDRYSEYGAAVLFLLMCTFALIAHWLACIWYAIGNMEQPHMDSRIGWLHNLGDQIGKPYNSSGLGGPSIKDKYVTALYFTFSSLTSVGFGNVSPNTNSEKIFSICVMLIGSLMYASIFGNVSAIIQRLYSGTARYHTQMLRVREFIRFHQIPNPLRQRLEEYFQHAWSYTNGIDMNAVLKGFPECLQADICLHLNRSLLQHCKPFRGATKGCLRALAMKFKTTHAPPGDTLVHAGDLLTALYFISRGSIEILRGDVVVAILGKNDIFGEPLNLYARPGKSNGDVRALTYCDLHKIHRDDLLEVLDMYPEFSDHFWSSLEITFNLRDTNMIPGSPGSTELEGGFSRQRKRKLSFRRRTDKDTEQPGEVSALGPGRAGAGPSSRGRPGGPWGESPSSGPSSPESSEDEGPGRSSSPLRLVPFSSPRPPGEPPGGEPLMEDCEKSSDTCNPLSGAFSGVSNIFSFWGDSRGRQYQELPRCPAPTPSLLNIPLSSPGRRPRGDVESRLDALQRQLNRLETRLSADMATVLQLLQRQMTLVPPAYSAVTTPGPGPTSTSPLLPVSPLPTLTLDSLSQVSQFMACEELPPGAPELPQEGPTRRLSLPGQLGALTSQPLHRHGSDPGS
# Measurement protocol: cell-based
# Particulars: (-LOG10(IC50), µM)
Where a name gives a salt, the structure may show the parent alone.
// returns no (0) unless IC50 is strictly below 6 µM, in which case yes (1)

Compound	Label value
CC(Cc1ccccc1)NCCCCl (stereo not drawn)	no (0)
CCCCCCCCCCCCCC[N+](C)(C)Cc1ccccc1	yes (1)
CCCC(C(=O)OCCN(CC)CC)(c1ccccc1)c1ccccc1 [Proadifen hydrochloride]	no (0)
CCCCCCCCn1sccc1=O	no (0)
CCCC[P+](CCCC)(CCCC)CCCC [Tetrabutylphosphonium chloride]	no (0)
CCCCCCCC[N+](C)(CCCCCCCC)CCCCCCCC	yes (1)
BrCC(Br)C1CCC(Br)C(Br)C1 (stereo not drawn)	no (0)
O=C(Oc1ccccc1)c1ccccc1C(=O)Oc1ccccc1 [Diphenyl phthalate]	no (0)
c1ccc(Sc2ccccc2)cc1 [Diphenyl sulfide]	no (0)
CN1CCN(C2=Nc3ccccc3Oc3ccc(Cl)cc32)CC1 [Loxapine succinate]	no (0)
O=C(CCCN1CCC(O)(c2ccc(Br)cc2)CC1)c1ccc(F)cc1	yes (1)

###

# Assayed target: hERG (Homo sapiens, UniProt Q12809)
# Measurement protocol: cell-based
# Particulars: (-LOG10(IC50), µM)
Structures can show the parent of a compound that is named as a salt.

Compound	Units label	IC50
CC(C)(c1ccccc1)c1ccc(O)c(C(C)(C)c2ccccc2)c1 [2,4-Bis(1-methyl-1-phenylethyl)phenol]	µM	21.7
COC(=O)C1=C(C)NC(COC(N)=O)=C(C(=O)OC(C)C)C1c1cccc(Cl)c1Cl (centres unmarked) [Lemildipine]	µM	23.9
C(=C(c1ccccc1)c1ccccc1)c1ccccc1 [Triphenylethylene]	µM	18.1
CC[C@@H]([C@H](C)O)n1ncn(-c2ccc(N3CCN(c4ccc(OC[C@@H]5CO[C@@](Cn6cncn6)(c6ccc(F)cc6F)C5)cc4)CC3)cc2)c1=O [Posaconazole]	µM	12.9
CN(C)CCCN1c2ccccc2Sc2ccccc21 [Promazine hydrochloride]	µM	9.52
CC(C)OC(=O)c1cc(C(=O)OC(C)C)cc([N+](=O)[O-])c1 [Nitrothal-isopropyl]	µM	40.6
CCCCNc1ccc(C(=O)OCCN(CC)CC)cc1 [Depolipon]	µM	19
N#CC1(N=NC2(C#N)CCCCC2)CCCCC1	µM	43.6
CCn1nc(Cc2ccccc2)cc1C1CCN(C[C@H]2C[C@H](N(C)[C@@H](C(=O)O)C(C)C)C[C@@H]2c2cccc(F)c2)CC1 [MK-578]	µM	20.3
CCc1c(C(=O)NN2CCCCC2)nn(-c2ccc(Cl)cc2Cl)c1-c1ccc(Br)cc1 [Surinabant]	µM	6.92
CCN(CC)CC1CCCCN1CC(=O)N1c2ccccc2C(=O)Nc2cccnc21 (centres unmarked) [AF-DX 116]	µM	20.5
CC(C)N1C(=O)N(c2ccccc2)CS/C1=N\C(C)(C)C [Buprofezin]	µM	19.5
CC1(C)CCC[C@]2(C)[C@H]3CC(=O)O[C@]3(C)CC[C@@H]12 [(3aR)-(+)-Sclareolide]	µM	42
CCCN(CCC)C(=O)C(CCC(=O)OCCCN1CCN(CCOC(=O)Cc2c(C)n(C(=O)c3ccc(Cl)cc3)c3ccc(OC)cc23)CC1)NC(=O)c1ccccc1 (centres unmarked) [Proglumetacin]	µM	0.365
Clc1ccc(C(OCCN2CCCCC2)c2ccccc2)cc1 (centres unmarked) [Cloperastine hydrochloride]	µM	0.849
O=C(CCCCCCCCc1cccnc1)N1CCC(C=C(c2ccccc2)c2ccccc2)CC1 [Ro 23-7637]	µM	11
CCC(=O)c1ccc2c(c1)N(CCCN(C)C)c1ccccc1S2 [Propionylpromazine hydrochloride]	µM	9.16
CO[C@]12C[C@@H](COC(=O)c3cncc(Br)c3)CN(C)[C@@H]1Cc1cn(C)c3cccc2c13 [Nicergoline]	µM	1.45
CCOC(=O)C1=NN(c2ccc(Cl)cc2Cl)C(C)(C(=O)OCC)C1 (centres unmarked) [Mefenpyr-diethyl]	µM	46.2
O=C1CCCCCCCCCCCCCC1 [Cyclopentadecanone]	µM	24.5
O=C(N[C@H]1N=C(c2ccccc2F)c2cccc3c2N(CC3)C1=O)c1cc2ccccc2[nH]1 [Pranazepide]	µM	7.86
CCOC(=O)c1ccc([C@H]2CC[C@H](NC[C@H](O)COc3ccc(O)c(NS(C)(=O)=O)c3)CC2)cc1 [SAR 150640]	µM	28.5
CCCCCCCCCCOCC(O)CN (centres unmarked) [Decominol hydrochloride]	µM	20.5
